Overview of reported logP across a group of molecules:
Please reply with the number alone, leaving off any unit.

Consider the reported logP for these molecules:
{"molecule": "O=S(=O)(Oc1ccccc1)c1ccccc1", "logP": 3.06}
{"molecule": "c1cc2snnc2c2c1CCNC2", "logP": 1.35}
{"molecule": "CC(C)c1cc(Oc2ccccc2)cc(C(C)C)c1NC(=S)NC(C)(C)C", "logP": 6}
{"molecule": "O=[N+]([O-])c1ccc(C=NO)cc1", "logP": 1.95}
{"molecule": "CCOP(=S)(OCC)SCCSCC", "logP": 4.02}

Task: Find the recorded logP belonging to CCNCCNCC and report it.
Result: 0.21

Task: Find the recorded logP belonging to CC1CC(C)CN(N=O)C1 (stereo not drawn) and report it.
Result: 1.53

Task: Find the recorded logP belonging to O=C(O)COc1ccc(Cl)cc1Cl and report it.
Result: 2.81

Task: Find the recorded logP belonging to CC(=O)c1ccc(C(C)C)cc1 and report it.
Result: 2.98

Task: Find the recorded logP belonging to Cc1cccc(O)c1 and report it.
Result: 1.96

Task: Find the recorded logP belonging to COC(=O)c1ccncc1 and report it.
Result: 0.87

Task: Find the recorded logP belonging to CC(=O)OCCc1ccccc1 and report it.
Result: 2.3

Task: Find the recorded logP belonging to Oc1ccc(Sc2ccc(O)cc2)cc1 and report it.
Result: 3.34

* * *

Overview of reported logP across a group of molecules:
Please reply with the number alone, leaving off any unit.

Consider the reported logP for these molecules:
{"molecule": "NCCc1c[nH]c2ccc(O)cc12", "assay_metric": "logP", "result": 0.21}
{"molecule": "CC(C)Br", "assay_metric": "logP", "result": 2.14}
{"molecule": "Clc1cccc(-c2cc(Cl)ccc2Cl)c1", "assay_metric": "logP", "result": 5.76}
{"molecule": "Cc1ccccc1OCC(=O)O", "assay_metric": "logP", "result": 1.98}
{"molecule": "COc1cc([N+](=O)[O-])c(OC)cc1CC(C)N (stereo unspecified)", "assay_metric": "logP", "result": 1.74}

Task: Find the recorded logP belonging to CC(C)N(Cc1cccnc1)C(C)C and report it.
Result: 2.27

Task: Find the recorded logP belonging to CCCCNCCCC and report it.
Result: 2.83

Task: Find the recorded logP belonging to CC1OC(=O)c2ccccc21 (stereo unspecified) and report it.
Result: 1.41

Task: Find the recorded logP belonging to CCNc1nc(Cl)nc(NC(C)(C)C#N)n1 and report it.
Result: 2.22

Task: Find the recorded logP belonging to CC(=O)c1cccc(O)c1 and report it.
Result: 1.39

Task: Find the recorded logP belonging to NC(Cc1ccccc1)Cc1ccccc1 and report it.
Result: 3.35

Task: Find the recorded logP belonging to O=C(O)C1Cc2cc(Cl)ccc2O1 (stereo unspecified) and report it.
Result: 2.11

Task: Find the recorded logP belonging to Nc1ccccc1Br and report it.
Result: 2.11

Task: Find the recorded logP belonging to Cc1ccccc1OCC(O)CO (stereo unspecified) and report it.
Result: 1.41

* * *

assay_metric: logP
Please reply with the number alone, leaving off any unit.

Consider the reported logP for these compounds:
{"compound": "CC(C)C(=O)OCC1CCC(n2cnc3c(=O)[nH]cnc32)O1 (centres undefined)", "logP": 0.02}
{"compound": "C(=NN1CCCCC1)c1ccccc1", "logP": 3.04}
{"compound": "CNC(=O)Oc1cccc(OC(C)C)c1", "logP": 1.96}
{"compound": "CON(C)C(=O)Nc1ccc(Cl)cc1", "logP": 2.3}

Task: Find the recorded logP belonging to CCCC(=O)OCC(=O)C1(O)C(C)CC2C3CCC4=CC(=O)C=CC4(C)C3(F)C(O)CC21C (centres undefined) and report it.
Result: 3.55

Task: Find the recorded logP belonging to CNC(=O)Nc1ccccc1 and report it.
Result: 1.12

Task: Find the recorded logP belonging to CN(C)C(=O)Nc1cccc(N)c1 and report it.
Result: -0.1

Task: Find the recorded logP belonging to CN(C)N=Nc1cccc(C(F)(F)F)c1 and report it.
Result: 3.78

* * *

Classification field. Basis: logP. Definitions: bottom end (below 1), midrange (1 to below 2), top end (2 or more)

Solved cases (5 shown):
{"compound": "NC(=O)c1cccc(C(N)=O)c1", "answer_label": "bottom end"}
{"compound": "CN(C)C(=O)C(C(=O)N(C)C)C(=O)N(C)C", "answer_label": "bottom end"}
{"compound": "O=C(O)C(Cl)(Cl)Cl", "answer_label": "midrange"}
{"compound": "COc1ccc(C(c2ccc(OC)cc2)C(C)[N+](=O)[O-])cc1 (stereo not given)", "answer_label": "top end"}
{"compound": "O=Cc1ccncc1", "answer_label": "bottom end"}

Task: Just checking, what class would you give CCCCNC here?
Result: midrange

Task: Just checking, what class would you give CCOC(=O)C(=Cc1ccc(Cl)cc1)C(C)=O here?
Result: top end

Task: Just checking, what class would you give NS(=O)(=O)c1ccc2ncccc2c1 here?
Result: bottom end

Task: Just checking, what class would you give COC(=O)c1cccc(N=NN(C)C)c1 here?
Result: top end

Task: Just checking, what class would you give COP(=O)(OC)Oc1ccc([N+](=O)[O-])c(C(C)C)c1 here?
Result: top end

* * *

So basically, if logP comes in under 2 it's Y, and if it's 2 or more it's N.

Solved cases (5 shown):
{"compound": "CON(C)C(=O)Nc1ccc(C(=O)c2ccccc2)cc1", "answer_label": "N"}
{"compound": "CC(C)c1ccc(O)c(=O)cc1", "answer_label": "Y"}
{"compound": "COc1cccc(C(=O)N(C)C)c1", "answer_label": "Y"}
{"compound": "CC(=O)Nc1cccc2cccnc12", "answer_label": "Y"}
{"compound": "O=C1C=C(N2CC2)C(=O)C(N2CC2)=C1N1CC1", "answer_label": "Y"}

Task: Answer whether the compound NC(=O)c1ccc(Br)cc1 has logP strictly less than 2
Result: Y

Task: Answer whether the compound c1ccc(-c2cccc(-c3ccccc3)n2)cc1 has logP strictly less than 2
Result: N

Task: Answer whether the compound O=C(Nc1cccc2cccnc12)C(F)(F)F has logP strictly less than 2
Result: N

Task: Answer whether the compound Nc1cc(Cl)c(Cl)c(Cl)c1 has logP strictly less than 2
Result: N

Task: Answer whether the compound CCCCCC(C)O (centres undefined) has logP strictly less than 2
Result: N

Task: Answer whether the compound CCCCc1cccc(OCC(=O)O)c1 has logP strictly less than 2
Result: N

Task: Answer whether the compound O=C(NO)c1ccccc1 has logP strictly less than 2
Result: Y

Task: Answer whether the compound O=C(CCl)Nc1ccccc1 has logP strictly less than 2
Result: Y

Task: Answer whether the compound CC1CCC(=O)CC1 has logP strictly less than 2
Result: Y

Task: Answer whether the compound CCC(C)[N+](=O)[O-] (centres undefined) has logP strictly less than 2
Result: Y

Task: Answer whether the compound Cc1[nH]cnc1CSCCNc1ncc(Cc2ccc3c(c2)OCO3)c(=O)[nH]1 has logP strictly less than 2
Result: N

Task: Answer whether the compound Nc1ncnc2c1ncn2[C@@H]1O[C@@H]2COP(=O)(O)O[C@H]2[C@H]1O has logP strictly less than 2
Result: Y

Task: Answer whether the compound NC(=S)c1cccs1 has logP strictly less than 2
Result: Y

Task: Answer whether the compound C[C@]12CC[C@@H]3c4ccc(O)cc4CC[C@H]3[C@@H]1C[C@@H](O)[C@@H]2O has logP strictly less than 2
Result: N

Task: Answer whether the compound COC(=O)CCC(NC(=O)c1ccc(N(C)Cc2cnc3nc(N)nc(N)c3n2)cc1)C(=O)OC (centres undefined) has logP strictly less than 2
Result: Y

Task: Answer whether the compound N#CCc1cccc(Oc2ccccc2)c1 has logP strictly less than 2
Result: N

Task: Answer whether the compound NCc1cccnc1 has logP strictly less than 2
Result: Y

Task: Answer whether the compound COc1ccncc1 has logP strictly less than 2
Result: Y

Task: Answer whether the compound N#Cc1ccccc1O has logP strictly less than 2
Result: Y

Task: Answer whether the compound CCOP(=S)(OCC)O/N=C(\C#N)c1ccccc1 has logP strictly less than 2
Result: N

Task: Answer whether the compound Clc1ccc(C(c2ccc(Cl)cc2)C(Cl)(Cl)Cl)cc1 has logP strictly less than 2
Result: N

Task: Answer whether the compound Cn1c(N)nc2cc(Cl)c(Cl)cc21 has logP strictly less than 2
Result: N

Task: Answer whether the compound OCC1OC(n2cnc3c(S)ncnc32)C(O)C1O (centres undefined) has logP strictly less than 2
Result: Y

* * *

Overview of reported logP across a group of compounds:
Please reply with the number alone, leaving off any unit.

{"compound": "Nc1nc(N)c2nc(-c3ccccc3)c(N)nc2n1", "logP": 0.98}
{"compound": "O=C1CCC(=O)N1c1cccc([N+](=O)[O-])c1", "logP": 0.38}
{"compound": "CN(CCO)N=Nc1ccc(C(N)=O)cc1", "logP": 0.26}

Task: Find the recorded logP belonging to CCOC(=O)CBr and report it.
Result: 1.12

Task: Find the recorded logP belonging to O=[N+]([O-])c1nccn1CC(O)CN1CCCCC1 (configuration not stated) and report it.
Result: 1

Task: Find the recorded logP belonging to Clc1ccc(-c2ccc(Cl)c(Cl)c2Cl)cc1 and report it.
Result: 5.84

Task: Find the recorded logP belonging to CCCCOP(=O)(OCCCC)Oc1ccccc1 and report it.
Result: 4.27

Task: Find the recorded logP belonging to O=c1cnn(C2OC(CO)C(O)C2O)c(=O)[nH]1 (configuration not stated) and report it.
Result: -2.14

These entries and their values trace back to the OPERA property sets (Mansouri et al. 2018).
